All values here come from the supplement of paper PMC9170038.

test system: MS2 coat protein; assay: apparent KD of MS2 coat protein; designed switch direction (-1 OFF switch, 1 ON switch): -1; higher = weaker reporter binding; settings: Eterna round: R95; input ligand: none
Each entry below carries its recorded apparent KD of MS2 coat protein.
Observable: apparent KD of MS2 coat protein (nM)

UCGAGGUCAGGAUAUACAUGAGGAUCACCCAUGUGGAUGUAAGGUAGGAGAAGAGUAGGUAGAAGGGACGAGAG [JR_Exclu3_Sub049] (puzzle: Exclusion 3): 55.4
AAUAAUAAGGAGGAUAUCGUAUCCGAAAGGAUACGAGAAGGCCUAACAUGAGGAUCACCCAUGUUCCUCAAUAA [Mat - Exclusion 6 - Eli Mod - D54] (puzzle: Exclusion 6): 267
AAGAAACAUGAGGAUCACCCAUGUGAGGAUAUGUAAAAUAAAAGAAAAUAAAGAAUAAACAGAAGGCACAAAGG [Mat - Mod of Hog D23] (puzzle: Exclusion 1): 43.5
AGAAAGCAAGGAUAUACAAAGAAACGACCGAAAGAAAAGAAACAUGAGGAUCACCCAUGUAGAAGGUGCAAGAA [JR_Exclu2_Sub031] (puzzle: Exclusion 2): 17.7
CUAGAUCUUCGGAUCUAGUACAUGAGGAUCACCCAUGUGACGAGUUACAUGUUUUACAAGCUUUUUGCUCGUCUUAU [Sensor v3 - Turn-off variant 1 - 13] (puzzle: Sensor v3, turn-off variant 1): 40.5
GUGAAGAAGUUAGUGGCCUACAUGAGGAUCACCCAUGUGAGGGAAAUGUUGAGGCGAAAGUUGUGUGCUCGUCUGUA [JR_SV3TOV1_Sub040] (puzzle: Sensor v3, turn-off variant 1): 31.1
GGUACUAACACGAAAGUGUUAGUACUAUAGGUUUGUGUUACAUGAGGAUCACCCAUGUCCUCAUAAGCUCGUCUUGU [JL-sv3-2.21 mat747 mod] (puzzle: Sensor v3, turn-off variant 2): 403
AGAAGUAGUAACCGAUCCUACAUGAGGAUCACCCAUGUAGCUAGACGUGCACGCGAGGCUCGUCAGACUACCAGAUG [salish99_TOv1_r3_028] (puzzle: Sensor v3, turn-off variant 1): 289
UUUUAACAUGAGGAUCACCCAUGUGAGGAUAUCGUUUUUUUUUUUUUUUUUUUUUUUUCGAGAAGGCACAUUUU [My solution] (puzzle: Exclusion 1): 14
GACCGGACGUGGUCUGGUAACAUGAGGAUCACCCAUGUAGGUCUAAGAACAAGCCUUUUGCACGCUCGUCUUAUAUU [JR_SV3TOV1_Sub061] (puzzle: Sensor v3, turn-off variant 1): 88.2

---

tested on: MS2 coat protein; experiment: apparent KD of MS2 coat protein; designed switch direction (-1 OFF switch, 1 ON switch): -1; higher = weaker reporter binding; conditions: input ligand: FMN 200 uM
# if value of apparent KD of MS2 coat protein reaches 90 nM, tag rule met; if it stays below, tag rule not met

GAUCACUGAGGAUAUACACAGAUACAAAGUAUCUGAUGGUGACAUGAGGAUCACCCAUGUAGAAGGCAGAGGUC [Omei Ex2 B7] (Eterna round: R97, puzzle: Exclusion 2): rule met
AGUUGGCGAGGAUAUACAUGAGGAUCACCCAUGUGAGAGAUACGAGUGAGGUCGAUUAGUAGAAGGCGCUGACA [Mat X3R4 m14] (Eterna round: R97, puzzle: Exclusion 3): rule met
GGCUAGUCAGGAUAUACGAACAUGUCAAAAGACGUGAAGGGACAUGAGGAUCACCCAUGUAGAAGGGACUAGCA [salish99-ex2-12] (Eterna round: R96, puzzle: Exclusion 2): rule met
UGUCAGAUGGUAGGAUAUCCAUAUCGAGUGACCCUUUCAUAACAUGAGGAUCACCCAUGUUGGUGGGAGAAGGGCCGUAUGGUG [salish99_ExNG02_R04_026] (Eterna round: R96, puzzle: Exclusion NG 2): rule not met

---

Each entry below carries its recorded apparent KD of MS2 coat protein.
tested on: MS2 coat protein; test: apparent KD of MS2 coat protein; designed switch direction (-1 OFF switch, 1 ON switch): -1; higher = weaker reporter binding; conditions: input ligand: FMN 200 uM
Observable: apparent KD of MS2 coat protein (nM)

AGUUAUUCAGGAUAUGGUGUGUUAUACAUGAGGAUCACCCAUGUGGAUCCUGGUUAGGCCUCAGAAGGGAAUGUUA [salish99_ex5_r4_126] (Eterna round: R97, puzzle: Exclusion 5): 412
GUCAUGAUUGUGAGGAUAUUUCAUAGAUAGAUGUUAGAGAAGGUACAUGAGGAUCACCCAUGUGUGAUCAGACA [Brourd's EX4 #74] (Eterna round: R97, puzzle: Brourd's mod of Exclusion 4): 336
AUAAUUAAUGCAGGAUAUCAGCACGUUUAGUGCUGAGAAGGGCACAUGAGGAUCACCCAUGUGAUCAAUUAAUAUUAAUAUUAU [ENG1/11-D2] (Eterna round: R96, puzzle: Exclusion NG 1): 269
UCCGAAGCAGGAUAUACAUGAGGAUCACCCAUGUGCUUGCAUGGCGUGGGAAGUCAUAGUAGAAGGGCUACGCC [jl-ex3-4.71 ViennaUCT mod] (Eterna round: R97, puzzle: Exclusion 3): 53.1
UGGUGUGCGAAGGAUAUGUAGGCUAUCAUGUCAAUAGAAGGUUGCACAUGAGGAUCACCCAUGUAAGCCACUUA [Eternabot (L1) Solution 17] (Eterna round: R97, puzzle: Exclusion 6): 69.2
AAUACAAGCUAUUGAUCCCACAUGAGGAUCACCCAUGUAGAUGGCGGUGACACCUCCAUUACGAUAGCUCGUCUUAU [Sensor-V1 #57] (Eterna round: R97, puzzle: Sensor, turn-off variant 1): 321
AUGGUUAGGUCAGGAUAUCGUUGAUUGAAUAGUAUGAUUUACAUGAGGAUCACCCAUGUUAUAUACGAGAAGGGACUUUAUCAU [JR_ExcNG2_Sub023] (Eterna round: R96, puzzle: Exclusion NG 2): 9.77
GGUAGAGUGGUAGGAUAUCCGUCUGUUUCAGUCGGAGAAGGACCACAGUCACUGGGUCCAAAUAUGGGUGACCAUGUAUCUACC [pwkr exNG1 F6.3] (Eterna round: R96, puzzle: Exclusion NG 1): 622
UUGGAACAUGAGGAUCACCCAUGUCAGGAUAUUCCAAAAUCGUCGAAAGACGAUAACAGAAGAAGGGACAUUAG [Fiskxlusion 9 - Jieux - Exclusion 1] (Eterna round: R97, puzzle: Exclusion 1): 124

---

system: MS2 coat protein; test: apparent KD of MS2 coat protein; higher = weaker reporter binding; details: Eterna round: R107; input ligand: arginine 13.2 mM
Observable: apparent KD of MS2 coat protein (nM)

UCCAGACAUGAGGAUCACCCAUGUUGUGAUACCAGAACCGUGGAGUUCCCUUGGCAGCACUAAGAAGUUCCUGGAUCAGCUAGCG [theeternabot_sameState_MS2_Theo_A_9]: 29.9
UGUAUGUGAUCUGAUACCAGAGUGAAUAACCUGAGGAUCACCCUGGUAAGGCGAAAGCCACUCCCUUGGCAGCAGAUCGCAUACU: 121
UCGCACAUGAGGAUCACCCAUGUACUAGAUACCAGUGACGCGGUGCACCCUUGGCAGCUGGUGCUGAGUGAUGGUUCCCUCGGCA [Exclusion Theophylline A GF8]: 53.5

---

tested on: MS2 coat protein; test: apparent KD of MS2 coat protein; designed switch direction (-1 OFF switch, 1 ON switch): -1; higher = weaker reporter binding; details: input ligand: none
Group membership follows apparent KD of MS2 coat protein per the scheme low: < 20 nM; mid: ≥ 20 nM and < 40 nM; high: ≥ 40 nM

ACAUGAGGAUCACCCAUGUCUGGCUGGUCCGCUCCGGCUGUUGAGGAUAUAGUUCGGUGUUCGCGCUAGAAGGUGAGGGCUGGC [Aenatbe mod 36] (Eterna round: R96, puzzle: Exclusion NG 3): mid
GCUGCACAUGUAGGAUAUCUGCACGUGUAGUGCAGAGAAGGACAUGAGGAUCACCCAUGUAGAUCAGCAGCAAUUAAUUUAAUU [ENG1/6-A2] (Eterna round: R96, puzzle: Exclusion NG 1): high
AGAGACCGAGGAUAUCCCAGAACUCACAUGAGGAUCACCCAUGUGUAGAUUGGGUGUCACGGAGAAGGCGGAUCGC [EX5 C.21] (Eterna round: R97, puzzle: Exclusion 5): low
GCACGAAGUGUAGGAUAUCUGUGCGAUUAGCUCAGAGAAGGACACAUGAGGAUCACCCAUGUUUUCCGCGGAAGCAAUACGUGC [Eli exng1 - 058] (Eterna round: R96, puzzle: Exclusion NG 1): low
GGCCUUCCGCGAGCUUUUUACAUGAGGAUCACCCAUGUGGUUUUUAGUCUUAUCCCGGGCCCGGUGUCGGGCCCGGG [-32.9, -53.8, A 12%] (Eterna round: R97, puzzle: Sensor, turn-off variant 1): mid
ACUGGUCGAGGAUAUACAUGAGGAUCACCCAUGUGGUCACGUGACUUCGGUCACGAAUGUAGAAGGCGACCAGU [E3/3-A5] (Eterna round: R97, puzzle: Exclusion 3): high
GGCGCCUGAGGAUAUCAGUCUGGAUCAGAAAAGAUCCUGACUGAGAAGGCACAUGAGGAUCACCCAUGUUCGCC [Mat - Exclusion 4 - Eli Mod - D51] (Eterna round: R97, puzzle: Exclusion 4): low
AGCGCCAUCGUGAGAUGGCGUAUUACAUGAGGAUCACCCAUGUAGGAUAUCGAUUGCUUUGCAGUCGAGAAGGACAUGUUCUUU [JL ENG3 3.80 Mod D] (Eterna round: R96, puzzle: Exclusion NG 3): mid
